tested on: Calu-3; experiment: cell viability relative to DMSO; higher = less toxic; details: 72 h; 10 nM
The entries below are paired with their reported cell viability.
Measured Parameter: cell viability (%)

CCN(CC)CCCCN1c2ccccc2Oc2ccc(Cl)cc21 105
OC[C@H]1O[C@H]([S-])[C@H](O)[C@@H](O)[C@@H]1O.[Au+] 92.1
O=C(Nc1ccc(S(=O)(=O)C(F)(F)F)cc1)C1=CCN(c2ncccc2C(F)(F)F)CC1 106
Cc1nc2c([nH]1)-c1ccccc1N(C(=O)c1ccc(NC(=O)c3ccccc3-c3ccccc3)cc1)CC2 106

----------
Listed compounds paired with reported cell viability
tested on: Vero E6; experiment: cell viability relative to DMSO; higher = less toxic; settings: 72 h; 10 nM
Measured Parameter: cell viability (%)

Cc1cccc2c1CC[C@H](CN1CCC(c3c(Cl)cccc3Cl)CC1)C[C@@H]2O 104
Cn1cnc(N)c2ncnc1-2 103
COc1cc(C)c(/C=C/C(C)=C/C=C/C(C)=C/C(=O)O)c(C)c1C 99.6
CNC(=O)c1c(-c2ccc(F)cc2)oc2cc(N(CCO)S(C)(=O)=O)c(C3CC3)cc12 97
CC(C)c1cccc2c(-c3ccccc3)cc(-c3ccc(-c4ccc(C(=O)O)cc4)[nH]3)nc12 94

----------
tested on: HepG2; assay: cell viability relative to DMSO; higher = less toxic; conditions: 72 h; 10000 nM
Each entry below carries its recorded cell viability.
Measured Parameter: cell viability (%)

Molecule	Readout Units	Observed
O=C(/C=C/c1cccc(S(=O)(=O)Nc2ccccc2)c1)NO	%	0.3
Cc1nc(=O)c2cc(CN(C)c3ccc(C(=O)N[C@@H](CCC(=O)O)C(=O)O)s3)ccc2[nH]1	%	65.1
CCC(CC)(NC(=O)C(C)C)C(=O)N[C@@H](CCCNC(=N)N)C(=O)NC1(C(=O)NC(c2ccc(F)cc2)c2ccc(F)cc2)CCCC1	%	114
CCc1c(C(=O)C(N)=O)c2c(OCC(=O)O)cccc2n1Cc1ccccc1	%	97.7
N[C@H](C(=O)O)c1ccc(O)c(C(=O)O)c1 [3-carboxy-4-hydroxyphenylglycine-(S)]	%	100
CN1CC[C@@H](NC(=O)Nc2ccc(C#N)cc2)C[C@@H]1c1nc2ccccc2[nH]1	%	92
C=CCN1CC[C@]23c4c5ccc(O)c4O[C@H]2/C(=N/NC(=O)c2ccccc2)CC[C@@]3(O)[C@H]1C5 [naloxone-benzoylhydrazone]	%	101

----------
tested on: Calu-3; experiment: cell viability relative to DMSO; higher = less toxic; details: 72 h; 10 nM
Here, each record is paired with measured cell viability data.

Molecule	cell viability (%)
CC(C)c1cccc2c(-c3ccccc3)cc(-c3ccc(-c4ccc(C(=O)O)cc4)[nH]3)nc12	96.2
CCOC(=O)CSCCC1NC(C(=O)O)CS1 (stereo not drawn)	97.1
CO[C@@]1(NC(=O)CSC[C@@H](N)C(=O)O)C(=O)N2C(C(=O)O)=C(CSc3nnnn3C)CS[C@@H]21	99.8
COC(=O)C1=C(C)NC(C)=C(C(=O)OC/C=C/c2ccccc2)C1c1cccc([N+](=O)[O-])c1 (stereo not drawn)	101
O=C(O)c1cn(-c2ccc(F)cc2)c2cc(N3CCNCC3)c(F)cc2c1=O	95.7
CC1(C)OC[C@@H](COC(=O)CCc2ccc(OC[C@@H](O)CNCCNC(=O)N3CCOCC3)cc2)O1	97.7
Cc1cc2cc3c(C)cc(=O)oc3c(C)c2o1	96.3
CC(C)(C)c1[nH]cnc1/C=c1\[nH]c(=O)/c(=C/c2ccccc2)[nH]c1=O	87.9

----------
test system: HepG2; test: relative viability EC50 (midpoint between 100% and the lowest measured viability); higher = less toxic; settings: 72 h
Measured Parameter: relative viability EC50

Compound	Observed
CC(C)(C)C(=O)Oc1ccc(S(=O)(=O)Nc2ccccc2C(=O)NCC(=O)O)cc1	> 10 µM
Cc1cccc(/C=N/Nc2cc(N3CCOCC3)nc(OCCc3ccccn3)n2)c1	0.308 µM
CC1(C)S[C@@H]2[C@H](NC(=O)[C@H](NC(=O)N3CCN(S(C)(=O)=O)C3=O)c3ccccc3)C(=O)N2[C@H]1C(=O)O	> 10 µM
CN1CCC(=C2c3ccccc3C=Cc3ccccc32)CC1	> 10 µM
COc1ccc(OC)c2c(=S)c3ccccc3[nH]c12	> 10 µM
c1cc(Cc2cnc[nH]2)ccn1	> 10 µM
COc1c(Nc2ccc(S(C)(=O)=O)nc2C)ncnc1OC1CCN(C(=O)OC(C)C)CC1	> 10 µM
CCCCCCN(CCCCCC)C(=O)Cc1c(-c2ccc(Cl)cc2)[nH]c2ccc(Cl)cc12	> 10 µM
O=C(Oc1ccc([N+](=O)[O-])cc1)N1CCC(C(O)(c2ccc3c(c2)OCO3)c2ccc3c(c2)OCO3)CC1	> 10 µM
N=C(N)c1ccc(N2CCN(C3CCN(CC(=O)O)CC3)CC2)cc1	> 10 µM
CO[C@H]1C[C@H](O[C@H]2CC[C@@]3(C)[C@H](CC[C@@H]4[C@@H]3CC[C@]3(C)[C@@H](C5=CC(=O)OC5)[C@@H](OC(C)=O)C[C@]43O)C2)O[C@@H](C)[C@@H]1O	0.0769 µM
O=C(Cn1ccnc1[N+](=O)[O-])NCc1ccccc1	> 10 µM
CC[N+](CC)(CC)CCOc1cccc(OCC[N+](CC)(CC)CC)c1OCC[N+](CC)(CC)CC [gallamine-triethiodide]	> 10 µM
CNC1CCCN(c2c(F)cc3c(=O)c(C(=O)O)cn(C4CC4)c3c2OC)C1 (centres undefined)	> 10 µM
N#CCCCSC(=N)N	> 10 µM
CC(C)(Cc1c[nH]c2ccc(Cl)cc12)NCCOc1ccccc1OCC1CC1	2.28 µM
NCC1CC(=O)N(Cc2ccccc2)C1 (centres undefined)	> 10 µM
Nc1n[nH]c2nnc(-c3c(-c4ccccc4)nn4ccccc34)cc12	> 10 µM
Cc1cccc(Oc2cnc(=O)[nH]c2)c1	> 10 µM

----------
Here the recorded cell viability is given for each entry.
tested on: Vero E6; assay: cell viability relative to DMSO; higher = less toxic; details: 72 h; 1 nM

Compound	cell viability
CC(=O)OC/C=C(C)/C=C/C=C(C)/C=C/C1=C(C)CCCC1(C)C [retinyl-acetate]	103%
Clc1ccccc1C(c1ccccc1)(c1ccccc1)n1cccn1 [TRAM-34]	104%
O=C1O[C@H]([C@@H](O)CO)C([O-])=C1O.[Na+] [sodium-ascorbate]	97.5%
O=C(c1ccc(Cl)cc1)N(Cc1ccccc1)C1CCCCC1 [FPS-ZM1]	97.6%
CC(C)c1cccc2c(-c3ccccc3)cc(-c3ccc(-c4ccc(C(=O)O)cc4)[nH]3)nc12	95.6%
NC(=O)NC1NC(=O)NC1=O (centres undefined) [allantoin]	108%
Cc1nc(Nc2n[nH]c3c2CN(C(=O)N[C@H](CN(C)C)c2ccccc2)C3(C)C)c2sccc2n1	97.9%
CN(C)c1nc(N)c(C(=O)Nc2cccnc2)nc1Cl [ACDPP]	102%
CCCOc1ccc(S(=O)(=O)N2CCN(CCO)CC2)cc1-c1nc2c(CCC)cn(CC)c2c(=O)[nH]1 [mirodenafil]	100%

----------
tested on: Calu-3; experiment: cell viability relative to DMSO; higher = less toxic; conditions: 72 h; 10 nM

Compound	cell viability / %
NCC1CC(=O)N(Cc2ccccc2)C1 (centres undefined)	96.3
O=C(Nc1nc2cccc(-c3ccc(CN4CCS(=O)(=O)CC4)cc3)n2n1)C1CC1	105
Nc1cc(C(F)(F)F)c(-c2cc(N3CCOCC3)nc(N3CCOCC3)n2)cn1	97.3
CC(C)(Oc1ccc(C2CC2(Cl)Cl)cc1)C(=O)O (centres undefined) [ciprofibrate]	98.1
Clc1ccc(N2CCN(Cc3c[nH]c4ncccc34)CC2)cc1	99.1
CCCn1c(=O)c2nc(-c3ccccc3)[nH]c2n(CCC)c1=O	102
O=C(OCC(COC(=O)c1cccnc1)(COC(=O)c1cccnc1)COC(=O)c1cccnc1)c1cccnc1	108
O=c1c2ccccc2oc2ccccc12	96.5
Nc1n[nH]c2nnc(-c3c(-c4ccccc4)nn4ccccc34)cc12	102
CC[C@@]1(O)C(=O)OCc2c1cc1n(c2=O)Cc2cc3ccccc3nc2-1	88.4
Cc1cc(Cn2cnc3c2C[C@@H](C(=O)O)N(C(=O)C(c2ccccc2)c2ccccc2)C3)ccc1N(C)C	106
CCN(CC)CCOc1ccccc1C(=O)CCc1ccccc1	99
O=C1N[C@@H]2[C@@H](O)[C@@H](O)[C@H](O)[C@@H](CO)N2C1=O	106
C=CCC1(CC(C)C)C(=O)NC(=O)NC1=O	96.7
CCC1(CC)C(=O)C=CNC1=O	94.1
COC(=O)C1=CO[C@@H](O[C@@H]2O[C@H](CO)[C@@H](O)[C@H](O)[C@H]2O)[C@@H]2C(CO)=CC[C@H]12 [geniposide]	98.2
NC(=O)N1CCC(CC(=O)N2CCC([C@H]3c4ncc(Br)cc4CCc4cc(Cl)cc(Br)c43)CC2)CC1	91.2
CCCCNc1c(C(=O)OCC)c(C)nc2c1cnn2CC [tracazolate]	85.1
COc1ccc(Nc2nccc(NCCO)n2)cc1	92.7
